Target: T1, human CD73 (full length, on transfected CHOK1 cells) (human, UniProt P21589 27-549)
T1 sequence (looked up): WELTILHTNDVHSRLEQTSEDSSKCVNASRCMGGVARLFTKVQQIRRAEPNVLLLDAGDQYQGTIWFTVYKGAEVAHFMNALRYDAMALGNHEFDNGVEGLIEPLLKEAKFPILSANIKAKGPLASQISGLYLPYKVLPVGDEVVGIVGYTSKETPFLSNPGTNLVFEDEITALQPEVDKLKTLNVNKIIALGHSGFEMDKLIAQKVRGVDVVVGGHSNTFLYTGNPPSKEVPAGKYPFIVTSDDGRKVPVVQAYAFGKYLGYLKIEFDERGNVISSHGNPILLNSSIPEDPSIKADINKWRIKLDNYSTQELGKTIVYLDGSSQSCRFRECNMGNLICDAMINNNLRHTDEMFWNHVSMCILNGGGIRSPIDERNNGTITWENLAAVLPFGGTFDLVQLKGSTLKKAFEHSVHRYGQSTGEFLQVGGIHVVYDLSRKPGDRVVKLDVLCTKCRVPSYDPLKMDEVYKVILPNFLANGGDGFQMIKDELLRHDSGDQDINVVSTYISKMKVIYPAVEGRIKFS
Experiment: cell-based or functional assay
Reported values of Inhibition assay of enzyme activity, IC50 for individual entries
Quick note: number first, unit second.

Worked cases, answers included:
# binder, reported
data = [
    ("mab042xhIgG1TM (clone 77B9A3), mouse-human chimeric anti-CD73 antibody (antibody, V domains shown, also called mAb042 chimeric antibody) VH: QVQLQQSGAGLVKPGASVKLSCKASGYTFTNYWMHWVKQRPGQGLEWIGMIHPNSGSTNNNEKFKNKATLTVDKSSNTAYMQLSSLTSEDSAVYYCARFFFGGYPHYYALDYWGQGTSVTVSS VL: DIVMTQSQKFMSTTVGDRVSITCKASQNVGTAVAWYQQKPGQSPKLLIYSASDRYTGVPDRLTGSGSGTDFTLTISNVQSEDLADYFCQQYSSFPLFTFGSGTKLVIQ", "0.5 nM"),
    ("mab041xhIgG1TM (clone 71E10B3), mouse-human chimeric anti-CD73 antibody (antibody, V domains shown, also called mAb041 chimeric antibody) VH: QVQLQQPGTELVKPGASVKLSCKASGYTFTSYWMHWVKQRPGQGLEWIGNINPSNGGTNYNQKFKSKATLTVDKSSNTASMQLSSLTSEDSAVYYCARGDYGYDWYLDVWGTGTTVTVSS VL: DIVLTQSPASLAVSLGQRAIISCKASQSVSFAGPSLMHWYQQKPGQQPKLLIYRTSNLEAGVPTRFSGSGSGTDFTLNIHPVEEDDAATYYCQQNREFPWTFGGGTKLEIK", "0.7 nM"),
    ("mab038xhIgG1TM (clone 69C9E12), mouse-human chimeric anti-CD73 antibody (antibody, V domains shown, also called mAb038 chimeric antibody) VH: QVQLQQPGTELVNPGASVKLSCKASGYTFTSYWMHWVKQRPGQGLEWIGNINPSNGGTHYNEKFNNKATLTVDKSSSTAYMQLSSLTSEDSAVFYCARGDYAYDWYFTVWGTGTTVTVSS VL: DIVLTQSPASLAVSLGQRAIISCKASQSVSFAGTGLMHWYQQKPGQQPKLLIYRVSNLEAGIPTRFSGSGSRTDFTLNIHPVEEDDAATYYCQQNREFPWTFGGGTKLEIK", "0.8 nM"),
]

IN: For mab034xhIgG1TM (clone 60G1C8), mouse-human chimeric anti-CD73 antibody (antibody, V domains shown, also called mAb034 chimeric antibody) VH: DVQLQESGPGLVKPSQSLSLTCSVTGYSITSRYYWNWIRQFPGNKLEWMGYMTYDGTNNYNPSLTNRISITRDTSKNQFFLKLNSVTAEDTATYFCARGGWDPFDYWGQGTTLTVSS VL: DIQMTQSPAALSASVGETVTITCRASDNIYSYLAWYQQKQGKCPQLLVKNAKTLAEGVPSRFSGSGSGTQFSLRINSLQPDDFGTYYCQHYYGTPLTFGAGTKLELK , what is its reported Inhibition assay of enzyme activity, IC50?
OUT: 0.2 nM

IN: For mab036xhIgG1TM (clone 66H6C12), mouse-human chimeric anti-CD73 antibody (antibody, V domains shown, also called mAb036 chimeric antibody) VH: QVQLQQSGAEVVKPGASVKISCKASGYVFSSYWINWVKQRPGKGLEWIGKIFPGNGDTDYNGNFKGKATLTADKSSSTAYMQLSSLTSEDSAVYFCAGFADWGQGTLVTVSA VL: DIQMTQSPSSLSASLGERVSLTCRASQDIGERLIWLQQEPDGTFKRLIYATSSLDSGVPKRFSGSSSGSDYSLTISRLESEDFVDYYCLQYASSPYTFGGGTKLEIK , what is its reported Inhibition assay of enzyme activity, IC50?
OUT: 0.3 nM
